species on record: Oryctolagus cuniculus; assay: Inhibition of K+ loss from rabbit blood cells treated with [Ca2+] ionophore A-23187.; type: functional
metric: IC50
Number first, unit second.

Enquiry: Please give the measured IC50 for this molecule: O=C(OCCN1CCCCCC1)C(c1ccccc1)c1ccccc1
Return: 164 µM

Enquiry: Same for O=C(OCCN1CCCCCC1)C12C[C@H]3C[C@@H](C1)C[C@@H](C2)C3
Return: 178 µM

Enquiry: Same for O=C(OCCN1CCCCCC1)C1(Cc2ccc(Cl)cc2)c2ccccc2-c2ccccc21
Return: 2.9 µM

Enquiry: Same for O=C(OCCN1CCCCCC1)C(c1ccsc1)C1CCCCC1 (stereo unspecified)
Return: 25 µM

Enquiry: Same for O=C(NCCN1CCCCCC1)C(c1ccsc1)C1CCCCC1 (stereo unspecified)
Return: 75 µM

Enquiry: Same for O=C(OCCN1CCCCCC1)C(c1ccccc1)C1CCCCC1 (stereo unspecified)
Return: 18 µM

Enquiry: Same for O=C(OCCN1CCCCCC1)c1cccc2ccccc12
Return: 222 µM

Enquiry: Same for O=C(OCCN1CCCCCC1)C(c1ccccc1)c1ccsc1 (stereo unspecified)
Return: 47 µM

Enquiry: Same for O=C(OCCN1CCCCCC1)C1c2ccccc2-c2ccccc21
Return: 42 µM

Enquiry: Same for O=C(OCCN1CCCCCC1)C1(Cc2ccccc2)c2ccccc2-c2ccccc21
Return: 4 µM

Enquiry: Same for O=C(OCCN1CCCCCC1)C(C1CCCCC1)C1CCCCC1
Return: 14 µM

----------
Field: logP. Provide a value for each of the compounds that follow.
experiment: Partition coefficient (logP); assay type: physicochemical; conditions: octanol/water; read-out: logP
Lab note: record just the number, no unit beside it.

Enquiry: Please give the measured logP for this compound: O=C(OCCN1CCCCCC1)C1(Cc2ccc(F)cc2)c2ccccc2-c2ccccc21
Return: 7.92

Enquiry: Same for O=C(OCCCN1CCCCCC1)C(c1ccccc1)(c1ccccc1)c1ccccc1
Return: 7.65

Enquiry: Same for O=C(OCCN1CCCCCC1)C1c2ccccc2-c2ccccc21
Return: 5.47

Enquiry: Same for O=C(OCCN1CCCCCC1)C12C[C@H]3C[C@@H](C1)C[C@@H](C2)C3
Return: 5.6

Enquiry: Same for O=C(OCCN1CCCCCC1)C(c1ccccc1)C1CCCCC1 (stereo unspecified)
Return: 6.88

Enquiry: Same for O=C(NCCN1CCCCCC1)C(c1ccsc1)C1CCCCC1 (stereo unspecified)
Return: 5.15

----------
assay: Partition coefficient (logP); format: physicochemical; details: octanol/water
Field: logP. Provide a value for each of the compounds that follow.

Enquiry: Please give the measured logP for this compound: O=C(OCCN1CCCCCC1)C(c1ccccc1)c1ccsc1 (stereo unspecified)
Return: 4.9

Enquiry: Same for C(#CCC1(Cc2ccccc2)c2ccccc2-c2ccccc21)CN1CCCCCC1
Return: 9.1

Enquiry: Same for O=C(OCCN1CCCCCC1)c1ccc2ccccc2c1
Return: 5.18

Enquiry: Same for O=C(OCCN1CCCCCC1)c1cccc2ccccc12
Return: 5.18

Enquiry: Same for O=C(NCCN1CCCCCC1)C(c1ccsc1)C1CCCCC1 (stereo unspecified)
Return: 5.11

Enquiry: Same for O=C(OCCN1CCCCCC1)C(C1CCCCC1)C1CCCCC1
Return: 6.86

Enquiry: Same for O=C(OCCN1CCCCCC1)C(c1ccsc1)C1CCCCC1 (stereo unspecified)
Return: 5.98

Enquiry: Same for O=C(OCCN1CCCCCC1)C1(Cc2ccccc2)c2ccccc2-c2ccccc21
Return: 7.18

Enquiry: Same for COc1ccc(CC2(C(=O)OCCN3CCCCCC3)c3ccccc3-c3ccccc32)cc1
Return: 7.09

Enquiry: Same for O=C(OCCN1CCCCCC1)C1(Cc2ccc(Cl)cc2)c2ccccc2-c2ccccc21
Return: 7.89

Enquiry: Same for O=C(OCCN1CCCCCC1)C(c1ccccc1)C1CCCCC1 (stereo unspecified)
Return: 5.93

----------
organism: Oryctolagus cuniculus; experiment: Inhibition of K+ loss from rabbit blood cells treated with [Ca2+] ionophore A-23187.; type: functional
metric: IC50 (µM)
Your answer should be a plain number; it is taken to be in µM.

Enquiry: Please give the measured IC50 for this compound: O=C(CC(c1ccccc1)c1ccccc1)OCCN1CCCCCC1
Return: 43

Enquiry: Same for O=C(OCCN1CCCCCC1)C1(Cc2ccc([N+](=O)[O-])cc2)c2ccccc2-c2ccccc21
Return: 4.6

Enquiry: Same for O=C(Cc1ccsc1)OCCN1CCCCCC1
Return: 142

Enquiry: Same for O=C(CC1CCCCC1)OCCN1CCCCCC1
Return: 290

Enquiry: Same for O=C(OCCN1CCCCCC1)c1ccc2ccccc2c1
Return: 285

Enquiry: Same for COc1ccc(CC2(C(=O)OCCN3CCCCCC3)c3ccccc3-c3ccccc32)cc1
Return: 2.8

----------
assay: Partition coefficient (logP); format: physicochemical; conditions: octanol/water
Entry flag: MET if logP reaches 5; NOT MET if it does not.

Enquiry: Decide: logP of O=C(OCCN1CCCCCC1)C1c2ccccc2-c2ccccc21 >= 5?
Return: MET

Enquiry: Same for O=C(OCCN1CCCCCC1)C1(Cc2ccc([N+](=O)[O-])cc2)c2ccccc2-c2ccccc21
Return: MET

Enquiry: Same for O=C(OCCN1CCCCCC1)C(c1ccccc1)c1ccccc1
Return: MET

Enquiry: Same for O=C(CC(c1ccccc1)c1ccccc1)OCCN1CCCCCC1
Return: MET

Enquiry: Same for O=C(OCCN1CCCCCC1)C1(Cc2ccc(F)cc2)c2ccccc2-c2ccccc21
Return: MET

Enquiry: Same for O=C(Cc1ccsc1)OCCN1CCCCCC1
Return: NOT MET

Enquiry: Same for O=C(OCCN1CCCCCC1)C12C[C@H]3C[C@@H](C1)C[C@@H](C2)C3
Return: NOT MET

----------
Field: IC50. Provide a value for each of the compounds that follow.
species: Oryctolagus cuniculus; test: Concentration required to cause 50% inhibition of K+ loss from rabbit blood cells treated with [Ca2+] ionophore A-23187; assay type: functional
Your answer should be a plain number; it is taken to be in µM.

Enquiry: Please give the measured IC50 for this compound: O=C(CC(c1ccccc1)(c1ccccc1)c1ccccc1)OCCN1CCCCCC1
Return: 9.3

Enquiry: Same for O=C(OCCN1CCCCCC1)c1c2ccccc2cc2ccccc12
Return: 28

Enquiry: Same for c1ccc(C(CCOCCN2CCCCCC2)(c2ccccc2)c2ccccc2)cc1
Return: 5.5

Enquiry: Same for O=C(OCCCN1CCCCCC1)C(c1ccccc1)(c1ccccc1)c1ccccc1
Return: 9.2

Enquiry: Same for C(#CCC1(Cc2ccccc2)c2ccccc2-c2ccccc21)CN1CCCCCC1
Return: 1.5

Enquiry: Same for O=C(OCCN1CCCCCC1)C(c1ccccc1)(c1ccccc1)c1ccccc1
Return: 8.2

----------
Field: logP. Provide a value for each of the compounds that follow.
assay: Partition coefficient (logP); type: physicochemical; conditions: octanol/water
Lab note: record just the number, no unit beside it.

Enquiry: Please give the measured logP for this compound: c1ccc(C(CCOCCN2CCCCCC2)(c2ccccc2)c2ccccc2)cc1
Return: 7.35

Enquiry: Same for O=C(OCCN1CCCCCC1)c1c2ccccc2cc2ccccc12
Return: 6.36

Enquiry: Same for O=C(CC(c1ccccc1)(c1ccccc1)c1ccccc1)OCCN1CCCCCC1
Return: 7.11

Enquiry: Same for C(#CCC1(Cc2ccccc2)c2ccccc2-c2ccccc21)CN1CCCCCC1
Return: 7.9

Enquiry: Same for O=C(OCCN1CCCCCC1)C(c1ccccc1)(c1ccccc1)c1ccccc1
Return: 6.69

Enquiry: Same for O=C(OCCCN1CCCCCC1)C(c1ccccc1)(c1ccccc1)c1ccccc1
Return: 6.4

----------
test: Partition coefficient (logP); format: physicochemical; details: octanol/water; read-out: logP
Field: logP. Provide a value for each of the compounds that follow.
Lab note: record just the number, no unit beside it.

Enquiry: Please give the measured logP for this compound: O=C(OCCN1CCCCCC1)C(c1ccccc1)c1ccccc1
Return: 5.44

Enquiry: Same for O=C(OCCN1CCCCCC1)c1cccc2ccccc12
Return: 5.16

Enquiry: Same for O=C(CC(c1ccccc1)(c1ccccc1)c1ccccc1)OCCN1CCCCCC1
Return: 7.65

Enquiry: Same for O=C(OCCN1CCCCCC1)c1c2ccccc2cc2ccccc12
Return: 6.45

Enquiry: Same for O=C(OCCN1CCCCCC1)C(c1ccsc1)C1CCCCC1 (configuration not stated)
Return: 6.59

Enquiry: Same for O=C(OCCN1CCCCCC1)C(C1CCCCC1)C1CCCCC1
Return: 8.33

Enquiry: Same for O=C(CC(c1ccccc1)c1ccccc1)OCCN1CCCCCC1
Return: 5.96

Enquiry: Same for O=C(OCCN1CCCCCC1)C(c1ccccc1)c1ccsc1 (configuration not stated)
Return: 5.15

Enquiry: Same for O=C(OCCN1CCCCCC1)C(c1ccccc1)(c1ccccc1)c1ccccc1
Return: 7.14

Enquiry: Same for O=C(OCCN1CCCCCC1)C1(Cc2ccc(Cl)cc2)c2ccccc2-c2ccccc21
Return: 8.41

Enquiry: Same for COc1ccc(CC2(C(=O)OCCN3CCCCCC3)c3ccccc3-c3ccccc32)cc1
Return: 7.75

Enquiry: Same for O=C(OCCN1CCCCCC1)C1(Cc2ccccc2)c2ccccc2-c2ccccc21
Return: 7.68

Enquiry: Same for O=C(OCCN1CCCCCC1)C1(Cc2ccc([N+](=O)[O-])cc2)c2ccccc2-c2ccccc21
Return: 7.44

Enquiry: Same for c1ccc(C(CCOCCN2CCCCCC2)(c2ccccc2)c2ccccc2)cc1
Return: 7.83

Enquiry: Same for O=C(OCCN1CCCCCC1)c1ccc2ccccc2c1
Return: 5.16

Enquiry: Same for O=C(CC1CCCCC1)OCCN1CCCCCC1
Return: 5.18

Enquiry: Same for O=C(Cc1ccsc1)OCCN1CCCCCC1
Return: 3.45

Taken from ChEMBL document CHEMBL1134458.
